Test system: S. enterica typhimurium WT
EXPERIMENT SUMMARY: growth AUC normalised to DMSO control (median) (fraction of control); higher = less growth inhibition, active = hit call of the paper
TEST CONDITIONS: 20 µM
Where a name gives a salt, the structure may show the parent alone.
Listed below: growth AUC normalised to DMSO control values for each entry.
// return a plain number; no unit text

# annotated cases, reported growth AUC normalised to DMSO control shown
CC(C)Cc1ccc([C@H](C)C(=O)O)cc1 [(S,+) Ibuprofen]    0.994
CCOC(=O)c1c(N)sc2c1CCN(Cc1ccccc1)C2 [Tinoridine hydrochloride]    0.989

Now for a further molecule.
[Q] For CC(=O)[C@@]1(O)CC[C@H]2[C@@H]3C[C@H](C)C4=CC(=O)C=C[C@]4(C)[C@@]3(F)[C@@H](O)C[C@@]21C [Fluorometholone] , what is its reported growth AUC normalised to DMSO control?
[A] 1

* * *

Test system: Salmonella enterica typhimurium
EXPERIMENT SUMMARY: growth AUC normalised to DMSO control (fraction of control); higher = less growth inhibition, active = hit call of the paper
TEST CONDITIONS: 20 µM
MEASURED ATTRIBUTE: growth AUC normalised to DMSO control
// return a plain number; no unit text

Cc1cc2cc3c(C)cc(=O)oc3c(C)c2o1 [Trioxsalen]    0.994
O=C(OCCOCCO)c1ccccc1Nc1cccc(C(F)(F)F)c1 [Etofenamate]    1.01

[Q] For COC(=O)C1=C(C#N)NC(C)=C(C(=O)OC(C)C)C1c1cccc([N+](=O)[O-])c1 (stereo not given) [Nilvadipine] , what is its reported growth AUC normalised to DMSO control?
[A] 1.01

[Q] For CC[C@H](C)C(=O)O[C@H]1C[C@@H](C)C=C2C=C[C@H](C)[C@H](CC[C@@H]3C[C@@H](O)CC(=O)O3)[C@H]21 [Lovastatin] , what is its reported growth AUC normalised to DMSO control?
[A] 0.999

[Q] For Nc1ccc(S(=O)(=O)Nc2nccs2)cc1 [Sulfathiazole] , what is its reported growth AUC normalised to DMSO control?
[A] 1.02

* * *

Listed below: growth AUC normalised to DMSO control values for each entry.
Test system: P. vulgatus WT
EXPERIMENT SUMMARY: growth AUC normalised to DMSO control (median) (fraction of control); higher = less growth inhibition, active = hit call of the paper
TEST CONDITIONS: 20 µM
// return a plain number; no unit text

CC(C(=O)O)c1ccc2c(c1)Cc1cccnc1O2 (centres undefined) [Pranoprofen]    1.04
Cc1onc(-c2c(F)cccc2Cl)c1C(=O)N[C@@H]1C(=O)N2[C@@H]1SC(C)(C)[C@@H]2C(=O)O [Flucloxacillin sodium]    0.132

[Q] For CN(c1nccc(=O)[nH]1)C1CCN(c2nc3ccccc3n2Cc2ccc(F)cc2)CC1 [Mizolastine] , what is its reported growth AUC normalised to DMSO control?
[A] 0.921

[Q] For CS(=O)(=O)OCCCCOS(C)(=O)=O [Busulfan] , what is its reported growth AUC normalised to DMSO control?
[A] 0.994

[Q] For CCCCCCCCCCCCCCCC[N+](C)(C)CCN(Cc1ccc(OC)cc1)c1ncccn1 [Thonzonium bromide] , what is its reported growth AUC normalised to DMSO control?
[A] 0.883

[Q] For COc1cc(-c2ccc(=O)[nH]n2)ccc1OC(F)F [Zardaverine] , what is its reported growth AUC normalised to DMSO control?
[A] 1.02

[Q] For Cn1c(=O)c2c(ncn2CCO)n(C)c1=O [Etofylline] , what is its reported growth AUC normalised to DMSO control?
[A] 1.02

[Q] For CC(=O)Nc1ccc(O)cc1 [Acetaminophen] , what is its reported growth AUC normalised to DMSO control?
[A] 1.01

[Q] For Cc1onc(-c2ccccc2)c1C(=O)N[C@@H]1C(=O)N2[C@@H]1SC(C)(C)[C@@H]2C(=O)O [Oxacillin sodium] , what is its reported growth AUC normalised to DMSO control?
[A] 0.151
